Ref: patent US10131639B2

TEST DETAILS: Hygroscopicity by dynamic vapor sorption (DVS)
Type: physicochemical
ASSAY CONDITIONS: DVS water uptake; L-tartrate: hydrate, difference between 20% RH and 80% RH
Text: DVS: A portion of the sample was loaded into a quartz sample holder and tested using DVS-Advantage system in two continuous adsorption/desorption cycles. The settings are described as follows: Adsorption/desorption cycle 1: 50 to 95 to 0% RH; Adsorption/desorption cycle 2: 0 to 95 to 0% RH;
PROPERTY NAME: Hygroscopicity (80% RH, 25° C., cycle 1 sorption) (%)

Study these solved cases before continuing.
>  <MOLECULE>
C[C@@H]1CC[C@@H](Nc2nc(NC(C)(C)C)ncc2C(N)=O)C[C@H]1O.O=P(O)(O)O

>  <READING>
0.48

$$$$
>  <MOLECULE>
CC1CCC(Nc2nc(NC(C)(C)C)ncc2C(N)=O)CC1O.Cl (stereo not shown) [HCl]

>  <READING>
5.21

$$$$

I: C[C@@H]1CC[C@@H](Nc2nc(NC(C)(C)C)ncc2C(N)=O)C[C@H]1O
II: C[C@@H]1CC[C@@H](Nc2nc(NC(C)(C)C)ncc2C(N)=O)C[C@H]1O.O=S(=O)(O)O
Decide: I or II , by lowest recorded Hygroscopicity (80% RH, 25° C., cycle 1 sorption). Output the label that corresponds to your choice.
I

----------
TEST DETAILS: Phase 1 study Part 2: single-dose plasma pharmacokinetics, relative bioavailability (tablet vs AIC) and food effect in healthy subjects
Type: in vivo, human
ASSAY CONDITIONS: human, plasma, po, 200 mg, Treatment D: 2×100 mg as AIC, single oral dose, fasted; geometric mean (geometric CV%), N=12; read-out: Cmax
Method: Part 2 was an open label, randomized, crossover study with three periods. The study consisted of a screening phase (Days −21 to −2), baseline (Day −1), three treatment/assessment periods, and a follow up phone call. Twelve eligible subjects reported to the study center on Day −1 of Period 1 for confinement and baseline assessments. All subjects fasted overnight for at least 10 hours prior to dosing. […] AUCt: AUC from time zero to the last quantifiable concentration. […]
PROPERTY NAME: Cmax (ng/mL)
Respond numerically; units are ng/mL and should not be typed.

Record request: Cmax value, item C[C@@H]1CC[C@@H](Nc2nc(NC(C)(C)C)ncc2C(N)=O)C[C@H]1O [Compound 1]
2080

----------
TEST DETAILS: Phase 1 study Part 1: plasma pharmacokinetics after multiple oral doses of Compound 1 as AIC (QD×6 days) in healthy subjects
Format: in vivo, human
ASSAY CONDITIONS: human, plasma; Treatment A: 60 mg as AIC, oral QD×6 days; median (minimum, maximum), N=15; read-out: Tmax
PROPERTY NAME: Tmax (h)
State just the number; it will be interpreted in h.

Fill blank: measured Tmax of the compound C[C@@H]1CC[C@@H](Nc2nc(NC(C)(C)C)ncc2C(N)=O)C[C@H]1O is ____.
1.95

----------
TEST DETAILS: Phase 1 study Part 2: single-dose plasma pharmacokinetics, relative bioavailability (tablet vs AIC) and food effect in healthy subjects
Format: in vivo, human
ASSAY CONDITIONS: human, plasma, po, 200 mg, Treatment F: 1×200 mg formulated tablet, single oral dose, fed; N=12; read-out: tmax, Median (Hodges-Lehmann estimate)
PROPERTY NAME: Tmax (h)
Please respond with the number in h and leave the unit unwritten.

Sample C[C@@H]1CC[C@@H](Nc2nc(NC(C)(C)C)ncc2C(N)=O)C[C@H]1O — what was its Tmax?
3
